molecular target: Hap1 (UniProt P0CE41); experiment: PBM E-score (8-mer binding enrichment) (E-score (-0.5 to 0.5)); higher = stronger / more preferred TF binding; details: protein concentration: 200 nM; construct: GST-DNA-binding domain
Sequence (P0CE41 whole entry, the tested form may be a part): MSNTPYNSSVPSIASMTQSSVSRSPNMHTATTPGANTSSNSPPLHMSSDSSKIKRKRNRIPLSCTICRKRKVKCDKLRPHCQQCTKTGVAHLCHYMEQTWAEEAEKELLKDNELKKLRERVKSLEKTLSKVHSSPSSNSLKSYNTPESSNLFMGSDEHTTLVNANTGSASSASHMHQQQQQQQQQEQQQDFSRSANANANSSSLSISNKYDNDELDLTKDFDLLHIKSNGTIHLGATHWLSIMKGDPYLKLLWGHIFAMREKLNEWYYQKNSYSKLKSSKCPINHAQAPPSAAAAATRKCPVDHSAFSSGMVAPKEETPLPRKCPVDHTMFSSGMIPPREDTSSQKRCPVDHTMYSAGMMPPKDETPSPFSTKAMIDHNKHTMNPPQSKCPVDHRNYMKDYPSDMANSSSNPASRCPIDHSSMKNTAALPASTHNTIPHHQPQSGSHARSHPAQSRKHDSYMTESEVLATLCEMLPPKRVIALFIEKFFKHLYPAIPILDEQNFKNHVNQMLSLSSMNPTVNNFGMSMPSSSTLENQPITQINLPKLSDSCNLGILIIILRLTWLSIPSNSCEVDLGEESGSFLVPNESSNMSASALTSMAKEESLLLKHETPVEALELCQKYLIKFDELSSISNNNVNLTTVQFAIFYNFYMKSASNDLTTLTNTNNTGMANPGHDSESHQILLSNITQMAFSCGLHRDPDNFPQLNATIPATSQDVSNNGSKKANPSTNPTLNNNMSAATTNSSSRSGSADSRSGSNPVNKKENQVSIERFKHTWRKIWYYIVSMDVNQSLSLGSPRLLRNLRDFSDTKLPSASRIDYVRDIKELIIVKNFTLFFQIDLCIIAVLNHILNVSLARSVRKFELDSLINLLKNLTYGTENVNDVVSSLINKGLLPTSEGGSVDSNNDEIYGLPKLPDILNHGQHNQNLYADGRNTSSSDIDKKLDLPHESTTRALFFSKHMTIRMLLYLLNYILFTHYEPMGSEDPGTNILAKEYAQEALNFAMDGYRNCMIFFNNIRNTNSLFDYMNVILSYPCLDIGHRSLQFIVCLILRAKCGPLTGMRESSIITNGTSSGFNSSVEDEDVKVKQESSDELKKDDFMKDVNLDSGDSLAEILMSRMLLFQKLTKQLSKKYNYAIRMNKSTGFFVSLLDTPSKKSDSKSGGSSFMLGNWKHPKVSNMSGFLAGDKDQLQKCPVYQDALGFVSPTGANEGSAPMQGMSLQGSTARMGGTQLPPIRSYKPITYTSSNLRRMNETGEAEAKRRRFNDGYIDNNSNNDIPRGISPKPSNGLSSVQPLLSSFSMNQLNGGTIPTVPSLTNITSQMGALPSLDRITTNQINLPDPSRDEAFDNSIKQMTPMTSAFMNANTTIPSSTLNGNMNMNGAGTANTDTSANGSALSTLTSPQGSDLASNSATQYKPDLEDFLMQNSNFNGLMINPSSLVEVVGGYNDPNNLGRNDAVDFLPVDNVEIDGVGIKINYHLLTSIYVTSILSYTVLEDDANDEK
In all, about 33,000 sequences were measured (“E-score (-0.5 to 0.5)”: median about -0.053, highest 2% from about 0.37 on). The sample holds the highest values, similar sequences and a random draw of the others, so the mix is not that of the screen.
MEASUREMENT_NAME: PBM E-score

POLYMER_SEQUENCE	TESTED_TARGET	PBM E-score
ACAAAAGC	Hap1 (UniProt P0CE41)	0.0095
GGCCAGCA	Hap1 (UniProt P0CE41)	-0.0771

# return PBM E-score for each item in the list
1. AGCGGGAA
2. GAACTGCC
3. CGCCGTCC
4. CTTCGGAC

Result:
1: 0.207; 2: -0.0156; 3: 0.0969; 4: 0.406

====

molecular target: Hap1 (UniProt P0CE41); test: PBM E-score (8-mer binding enrichment) (E-score (-0.5 to 0.5)); higher = stronger / more preferred TF binding; conditions: protein concentration: 200 nM; construct: GST-DNA-binding domain
Whole data set: some 33,000 sequences, median “E-score (-0.5 to 0.5)” near -0.053, cut for the highest 2% near 0.37. What follows is part of a selection rich in the highest values, with near analogues and random picks from the rest.
MEASUREMENT_NAME: PBM E-score
One number for each entry.

# annotated cases, reported PBM E-score shown
POLYMER_SEQUENCE	MEASUREMENT_NAME	RECORDED_MEASUREMENT
CGGTCATC	PBM E-score	0.192
CAATCGGA	PBM E-score	0.394
GGGTCGTA	PBM E-score	0.0749
GGGTCTTA	PBM E-score	0.0728

Provide each entry's PBM E-score from the list below.
1. CAATCGGG
2. CGGTCGTC
3. ATCCGCAC
4. AACAAAGC
5. GGGTCATA
6. CTATCGTA

Result:
0.205
0.165
0.21
-0.0164
-0.00686
-0.17

Q: Identify measured PBM E-score obtained with Hap1 (UniProt P0CE41) for ATCCGGCG .
Result: 0.355

====

target: Hap1 (UniProt P0CE41); assay: PBM E-score (8-mer binding enrichment) (E-score (-0.5 to 0.5)); higher = stronger / more preferred TF binding; settings: protein concentration: 200 nM; construct: GST-DNA-binding domain
Whole data set: some 33,000 sequences, median “E-score (-0.5 to 0.5)” near -0.053, cut for the highest 2% near 0.37. For the sample, the highest values were picked, then their nearest neighbours and some sequences at random.
MEASUREMENT_NAME: PBM E-score
One number for each entry.

Hi, could you look up PBM E-score for each item in my list?
1. AAGTCGGG
2. ATTTTCCG
3. ACGCCCGC
4. ATCCTCAC
5. ATTTTCGG
6. CCGATAGG
7. GTGCCGGA

Result:
1: 0.153; 2: 0.413; 3: 0.183; 4: -0.103; 5: 0.396; 6: 0.438; 7: 0.406

Give PBM E-score for all sequences that follow.
1. TCGCCCGA
2. CATTTCCG
3. ATTTTCCC
4. CTGCCGGA
5. GTGCCGTA

Result:
0.362
0.352
0.123
0.286
0.1

====

molecular target: Hap1 (UniProt P0CE41); experiment: PBM E-score (8-mer binding enrichment) (E-score (-0.5 to 0.5)); higher = stronger / more preferred TF binding; settings: protein concentration: 200 nM; construct: GST-DNA-binding domain
In all, about 33,000 sequences were measured (“E-score (-0.5 to 0.5)”: median about -0.053, highest 2% from about 0.37 on). Many of the other results were omitted from the sample, so the highest values are more common in it than they were.
MEASUREMENT_NAME: PBM E-score
Give bare numbers.

Solved entries (count: 3):
POLYMER_SEQUENCE	PBM E-score
ACGGACCA	0.344
ACCGGCCA	0.284
CAAGCTCC	0.00322

Below are 2 sequences. Give each one its PBM E-score.
1. AGTCCCTC
2. CATCCTCA

Result:
1: -0.175; 2: -0.154

====

Consider the following sequences; for each one, report its PBM E-score.
molecular target: Hap1 (UniProt P0CE41); assay: PBM E-score (8-mer binding enrichment) (E-score (-0.5 to 0.5)); higher = stronger / more preferred TF binding; conditions: protein concentration: 200 nM; construct: GST-DNA-binding domain
Over roughly 33,000 sequences, “E-score (-0.5 to 0.5)” has its median near -0.053; the highest 2% begin near 0.37. The list comes from a sample in which the highest values are over-represented; it also holds close analogues and randomly drawn sequences.
One number for each entry.

Observe how each entry below is paired with its result.
POLYMER_SEQUENCE	TESTED_TARGET	PBM E-score
GCGGTCGA	Hap1 (UniProt P0CE41)	0.163
CGCCGAAC	Hap1 (UniProt P0CE41)	0.344

Hi team, please reply with PBM E-score for each item in this list.
1. CGCCGACA
2. ACCTCTCG
3. AGCCGAAC

Result:
[0.215, -0.0768, 0.227]

====

biological target: Hap1 (UniProt P0CE41); test: PBM E-score (8-mer binding enrichment) (E-score (-0.5 to 0.5)); higher = stronger / more preferred TF binding; settings: protein concentration: 200 nM; construct: GST-DNA-binding domain
Over roughly 33,000 sequences, “E-score (-0.5 to 0.5)” has its median near -0.053; the highest 2% begin near 0.37. Many of the other results were omitted from the sample, so the highest values are more common in it than they were.
MEASUREMENT_NAME: PBM E-score
Numbers only.

POLYMER_SEQUENCE	TESTED_TARGET	MEASUREMENT_NAME	RECORDED_MEASUREMENT
GCCCCCGA	Hap1 (UniProt P0CE41)	PBM E-score	0.2
GGGATACC	Hap1 (UniProt P0CE41)	PBM E-score	0.196

As a next step, examine the sequence that follows.
Q: GET PBM E-score where system = Hap1 (UniProt P0CE41) and item = CACCGATG
Result: 0.196

====

target: Hap1 (UniProt P0CE41); assay: PBM E-score (8-mer binding enrichment) (E-score (-0.5 to 0.5)); higher = stronger / more preferred TF binding; conditions: protein concentration: 200 nM; construct: GST-DNA-binding domain
Whole data set: some 33,000 sequences, median “E-score (-0.5 to 0.5)” near -0.053, cut for the highest 2% near 0.37. The entries come from a sample that favours the highest values as a whole.
Is PBM E-score at least 0.08? Then YES. If not, NO.

Some solved entries appear below for comparison.
POLYMER_SEQUENCE	LABEL_CLASS
ACCCGGCC	YES
CTCCTATA	NO
ATCGGGTG	YES

Q: Does the sequence ATTTACCC have recorded PBM E-score that is 0.08 or more?
Result: YES

Q: Check if PBM E-score >= 0.08 (inclusive). Item: GGCTGCTA
Result: NO

Q: Check if PBM E-score >= 0.08 (inclusive). Item: AGGAATTA
Result: YES

Q: Item CGTTTGAA with PBM E-score of 0.08 or above?
Result: NO

Q: Confirm if PBM E-score reported for the sequence GTACCGCA is 0.08 or above.
Result: YES

Q: Determine whether this sequence has PBM E-score no lower than 0.08: CGGTGATC
Result: YES

Q: Quick check, PBM E-score >= 0.08? CTCAGCTA
Result: NO

Q: Does the sequence ACATCCAT have recorded PBM E-score that is 0.08 or more?
Result: NO

====

biological target: Hap1 (UniProt P0CE41); test: PBM E-score (8-mer binding enrichment) (E-score (-0.5 to 0.5)); higher = stronger / more preferred TF binding; settings: protein concentration: 200 nM; construct: GST-DNA-binding domain
Whole data set: some 33,000 sequences, median “E-score (-0.5 to 0.5)” near -0.053, cut for the highest 2% near 0.37. Only a selection was taken, and the highest values are over-represented in it overall.
MEASUREMENT_NAME: PBM E-score
Give bare numbers.

POLYMER_SEQUENCE	PBM E-score
AACACCTG	-0.0827
ATTCCCTC	-0.083
AACACCGC	0.278

For every item in the list below, what is its measured PBM E-score?
1. GGTAAATA
2. ACCCGGTG
3. TGCGAAAA
4. TCCGAAAA

Result:
[0.0374, 0.249, -0.00129, 0.393]

====

target: Hap1 (UniProt P0CE41); assay: PBM E-score (8-mer binding enrichment) (E-score (-0.5 to 0.5)); higher = stronger / more preferred TF binding; conditions: protein concentration: 200 nM; construct: GST-DNA-binding domain
Over roughly 33,000 sequences, “E-score (-0.5 to 0.5)” has its median near -0.053; the highest 2% begin near 0.37. Many of the other results were omitted from the sample, so the highest values are more common in it than they were.
MEASUREMENT_NAME: PBM E-score

Use the examples below as a reference point.
POLYMER_SEQUENCE	RECORDED_MEASUREMENT
GGATCCAC	0.059
AATGTCCA	-0.104
CTCAGTTC	-0.241
ATTGTCCG	0.396
CCACTGAG	-0.235
CGGCGGAG	0.387
ACGGATTA	0.142
ACCGGACC	0.397
CGGATACC	0.218
AGGTGCTC	-0.269

Provide the reported PBM E-score of each entry below, same order.
1. AACGGACC
2. GCGGACCC
3. ACGGACAT
4. AGGCGGTA

Result:
0.327
0.266
0.421
-0.131

Quick batch: PBM E-score for everything below.
1. CCGGACCC
2. CCGGACCG
3. CAGCGGAG

Result:
[0.374, 0.431, 0.245]

Value sought for every listed sequence: PBM E-score.
1. CGGATATA
2. GAATCAGC
3. CGCGTTGC

Result:
0.482
-0.175
0.159

Dear reader, for each entry below, please note its PBM E-score.
1. CTCGGAGC
2. GGGATATA

Result:
1: 0.322; 2: 0.21

Recorded values, source the supplement of paper PMC3334620.
